Each entry below lists one item and its recorded GI50 value.
- Tested on: HT-29
- EXPERIMENT NOTES: NCI tumour cell line growth inhibition, 48 h
The source made the active and inactive calls. Cut-off read from the data, not from the text of the source: active = GI50 up to about 1.1 µM and inactive = higher.

COMPOUND	GI50
COC(=O)CN(CC(O)C(NC(C)=O)C(O)C=O)C(=O)OCc1ccccc1 (stereo not given)	> 100 µM (inactive)
N#Cc1c(-c2ccc(Cl)cc2)cc(-c2ccc(Nc3ccnc4cc(Cl)ccc34)cc2)[nH]c1=O	> 100 µM (inactive)
COc1cccc2c(Nc3ccc(S(=O)(=O)N=C(N)N)cc3)c3ccc([N+](=O)[O-])cc3nc12	32.8 µM (inactive)
CC1=C(C(=O)OCCO[N+](=O)[O-])C(c2ccccc2[N+](=O)[O-])C(C(=O)OC(C)C)=C(C)N1 (stereo not given)	15.7 µM (inactive)
CCOc1cc(C2CC(c3ccc(NS(=O)(=O)c4cc([N+](=O)[O-])ccc4C)cc3)=NN2S(=O)(=O)c2cc([N+](=O)[O-])ccc2C)ccc1O (stereo not given)	49.3 µM (inactive)
CCOP(=O)(OCC)/C(C#N)=C/c1cccn1Cc1ccccc1	32.7 µM (inactive)
O=C(CNS(=O)(=O)Cc1ccccc1)NNc1ccccc1	> 100 µM (inactive)
COc1cc2c[n+]3ccc4cc(OC)c(OC)cc4c3cc2cc1O	> 100 µM (inactive)
COC(=O)C(Cc1nc2ccccc2nc1O)C(=O)C(=O)Nc1cc(C(F)(F)F)ccc1Cl (stereo not given)	15.3 µM (inactive)
COc1ccc(CCN2CCc3c(C)c(C#N)c4nc5ccccc5n4c32)cc1OC	32.6 µM (inactive)
CC(C)(C)c1ccc(Oc2ccc(C#N)c(C#N)c2)c(C(C)(C)C)c1	34.3 µM (inactive)
COC(=O)C(CC=O)C(=O)C(=O)Nc1cccc(C(F)(F)F)c1 (stereo not given)	> 100 µM (inactive)
NN/C(=N\S(=O)(=O)c1cc(S(=O)(=O)c2ccccc2)cs1)Nc1ccc(Cl)cc1	36.1 µM (inactive)
CC1(C)COC(C2(C)C(=O)C=C(c3ccccc3)c3ccccc32)=N1 (stereo not given)	30.5 µM (inactive)
CC(=O)/C(C)=N/NC(=O)c1ccccc1O	> 10 µM (inactive)
N#CC(/C(=N\NC(N)=S)C(=O)NC1C2CC3CC(C2)CC1C3)c1ccc(Cl)cc1 (stereo not given)	> 100 µM (inactive)
CCOC(=O)NC(=O)c1cn(C2CCCCC2)c(=O)[nH]c1=O	6.67 µM (inactive)
Cc1ccc(N2C(=O)CC(=O)N(NC(=O)C(C)Oc3ccccc3C)C2=S)cc1 (stereo not given)	> 100 µM (inactive)
CC(C)(C)c1cc(C(C)(C)C)c(SC2OC(CO)C(O)C(O)C2O)c(O)c1O (stereo not given)	7.1 µM (inactive)
O=C(O)/C=C/c1c[nH]cn1	> 500 µM (inactive)

###

- Tested on: SK-MEL-5
- EXPERIMENT NOTES: NCI tumour cell line growth inhibition, 48 h
Activity calls are given as the source filed them. Rule as the data show it: active = GI50 up to about 1.1 µM and inactive = higher.

MOLECULE	GI50
COC(=O)C(Cc1nc2ccccc2nc1O)C(=O)C(=O)Nc1cc(C(F)(F)F)ccc1Cl (stereo not given)	20.4 µM (inactive)
Cc1ccc(-c2nc3ccccc3c(=O)n2NCC2(O)OCC(O)C(O)C2O)cc1 (stereo not given)	> 100 µM (inactive)
COc1ccc(/N=N/c2c(-c3c(OC)cc4occc4c3OC)[nH]c(=O)c(C#N)c2C)cc1	> 100 µM (inactive)
O=C(Nc1ccc(C2=NCCN2)cc1)c1cncc(C(=O)Nc2ccc(C3=NCCN3)cc2)c1	> 100 µM (inactive)
c1ccc(Cc2nc(Cc3n[nH]c(Cc4ccccc4)n3)n[nH]2)cc1	> 100 µM (inactive)
CN(CC(=O)O)S(=O)(=O)c1ccc(F)cc1	> 100 µM (inactive)
COc1cc(-c2oc3c(OC)c(O)c(OC)c(O)c3c(=O)c2OC)cc(OC)c1OC	14 µM (inactive)
CC(=O)Oc1ccccc1C(=O)O [ASPIRIN]	> 100 µM (inactive)
Cc1ccc(C(=O)NC(C)(C)C)cc1/N=N/N(C)C	> 100 µM (inactive)
CC(C)=CCc1c(O)c(CC=C(C)C)c2oc3c(c(=O)c2c1O)C(C=C(C)C)Oc1cc(O)ccc1-3 (stereo not given)	8.53 µM (inactive)

###

Attribute: GI50
- Tested on: SK-OV-3
- EXPERIMENT NOTES: NCI tumour cell line growth inhibition, 48 h
Calls of active or inactive are those of the source. Cut-off read from the data, not from the text of the source: active = GI50 up to about 1.1 µM and inactive = higher.
RECORDED ENDPOINT: GI50

MOLECULE	TGT	RECORDED ENDPOINT	REPORTED RESULT
O=C(Nc1nc2ccc([N+](=O)[O-])cc2s1)C(=O)C(C1OC(=O)c2ccccc21)[N+](=O)[O-] (stereo not given)	SK-OV-3	GI50	54.3 µM (inactive)
C[N+]12C=CC=C1C(N1CCCC1)c1scc(-c3ccccc3)c12 (stereo not given)	SK-OV-3	GI50	> 100 µM (inactive)
CC1CC(=O)Nc2ccc(Cl)cc2N1C(=O)CN1CCC(CCCCN(C)C)CC1 (stereo not given)	SK-OV-3	GI50	> 100 µM (inactive)
c1cc(-c2ccc(-c3ccsc3)s2)cs1	SK-OV-3	GI50	> 100 µM (inactive)
CCCCn1c2c(n(CCCC)c1=S)-c1c(n(CCCC)c(=S)n1CCCC)SSSS2	SK-OV-3	GI50	46.1 µM (inactive)

###

- Test system: NCI-H522
- EXPERIMENT NOTES: NCI tumour cell line growth inhibition, 48 h
Active and inactive are the calls of the source. Rule as the data show it: active = GI50 up to about 1.1 µM and inactive = higher.
A collection of compounds and their measured GI50

COMPOUND	GI50
C/C(=N\NC(=S)NCc1ccccc1)c1nc2cccnc2[nH]1	15.1 µM (inactive)
CC1CN1c1c(C(=O)/C=C/c2ccccc2)c(-c2ccccc2)nn(C)c1=O (stereo not given)	13.4 µM (inactive)
COc1cccc2c(Nc3ccc(S(=O)(=O)NC(C)=O)cc3)c3ccc([N+](=O)[O-])cc3nc12	17.5 µM (inactive)
COc1cc([C@@H]2c3cc4c(cc3[C@@H](NC(=O)c3cccc(F)c3)C3COC(=O)[C@@H]32)OCO4)cc(OC)c1O (stereo not given in full)	1.4 µM (inactive)
O=C(NC(Cc1c[nH]cn1)C(=O)N1CCCC1)C1CCCC1 (stereo not given)	> 100 µM (inactive)

###

- Tested on: CAKI-1
- EXPERIMENT NOTES: NCI tumour cell line growth inhibition, 48 h
Calls of active or inactive are those of the source. No stated cut-off is given here; in the data, active = GI50 up to about 1.1 µM and inactive = higher.
Labels: 1 (yes) (active), 0 (no) (inactive)

COMPOUND	ASSIGNED CATEGORY
Cc1cccc2nc3cccc(C(=O)NCCC[N+](C)(CCCNC(=O)c4cccc5nc6cccc(C)c6nc45)Cc4ccc([N+](=O)[O-])n4C)c3nc12	1 (yes)
CC1CCCc2c1c1ccc3c(O)cccc3c1oc2=O (stereo unspecified)	0 (no)
O=C(O)CCCCCCCCC(=O)O	0 (no)
CN1CCN(c2ncc3c(n2)sc2c(=O)n(-c4ccccc4)cnc23)CC1	0 (no)
CC[C@@H](O)C[C@H]1CCC[C@@]2(C[C@@H]3OC(=O)/C=C/[C@@](C)(O)[C@@H](O)[C@H](C)[C@@H](O)[C@H](OC4CCC(N(C)C)C(C)O4)[C@@H](O)[C@](C)(O)CCCCC/C=C/[C@@H]4CC(C)(C)O[C@@]4(O)C[C@H](O2)[C@H]3C)O1 (stereo partly specified)	0 (no)
Cc1ccc(C(=O)c2[nH]c(Nc3ccc(Cl)cc3)c(C(=S)Nc3ccccc3)c2N)cc1	0 (no)
C[C@H]1[C@@H]2C[C@@H]3O[C@@]34[C@H]3CCC5Cc6nc7c(nc6C[C@@]5(C)[C@]3(O)CC(=O)[C@@]24CO[C@]12OC(C)(C)C[C@@H]2O)CC1CC[C@@H]2C3=C[C@H]4O[C@@]5(OC(C)(CO)C[C@@H]5O)[C@H](C)[C@@]4(O)[C@]3(C)[C@@H](O)CC2[C@]1(C)C7 (stereo partly specified)	1 (yes)
C/C=C\C(CC(=O)NCCC1CN(C(=O)c2ccccc2)c2ccccc21)CC(=O)OC (stereo unspecified)	0 (no)
Clc1cc2nc[nH]c2cc1Cl	0 (no)
Cn1nc(Cc2ccc(Cl)cc2)n(N)c1=O	0 (no)
Nc1ncnc2c1ncn2C1(CO)OC(CO)C(O)C1O (stereo unspecified)	0 (no)
C[C@H](CSC(=O)c1ccccc1)C(=O)N1c2ccccc2C[C@H]1C(=O)O	0 (no)
Fc1ccc(C(OCCN2CCC3CCC(C2)N3C/C=C/c2cccnc2)c2ccc(F)cc2)cc1 (stereo unspecified)	0 (no)
COc1ccc2c(c1)CN1C(=N2)CSC1c1ccccc1Cl (stereo unspecified)	0 (no)
COc1ccc(C2ON(c3ccccc3)CC=C2C)cc1 (stereo unspecified)	0 (no)
C[C@H]1NC(=O)C2CCCCN2C(=O)CN(C)C(=O)CNC(=O)C2CCCCN2C(=O)[C@@H](NC(=O)c2nc3ccccc3cc2O)[C@@H](C)NC(=O)C2CCCCN2C(=O)CN(C)C(=O)CNC(=O)[C@@H]2CCCCN2C(=O)C1NC(=O)c1nc2ccccc2cc1O (stereo partly specified)	1 (yes)
